Tested on: MCF-7 human breast cancer cells
Assay: Cytotoxicity test, XTT assay
Type: cell-based
Settings: test 1; 74 hr incubation; XTT
measured-endpoint: IC50

smiles-entry	experimental-system	observed-value
CO[C@H]1/C=C\C=C(/C)C(=O)NC2=CC(=O)C(NCCO)=C(C[C@@H](C)C[C@H](OC)[C@H](O)[C@@H](C)/C=C(\C)[C@@H]1OC(N)=O)C2=O	MCF-7 human breast cancer cells	855 nM

// data source = patent US20100119529A1
